- test-system: Gcr1 (UniProt P07261)
- Sequence: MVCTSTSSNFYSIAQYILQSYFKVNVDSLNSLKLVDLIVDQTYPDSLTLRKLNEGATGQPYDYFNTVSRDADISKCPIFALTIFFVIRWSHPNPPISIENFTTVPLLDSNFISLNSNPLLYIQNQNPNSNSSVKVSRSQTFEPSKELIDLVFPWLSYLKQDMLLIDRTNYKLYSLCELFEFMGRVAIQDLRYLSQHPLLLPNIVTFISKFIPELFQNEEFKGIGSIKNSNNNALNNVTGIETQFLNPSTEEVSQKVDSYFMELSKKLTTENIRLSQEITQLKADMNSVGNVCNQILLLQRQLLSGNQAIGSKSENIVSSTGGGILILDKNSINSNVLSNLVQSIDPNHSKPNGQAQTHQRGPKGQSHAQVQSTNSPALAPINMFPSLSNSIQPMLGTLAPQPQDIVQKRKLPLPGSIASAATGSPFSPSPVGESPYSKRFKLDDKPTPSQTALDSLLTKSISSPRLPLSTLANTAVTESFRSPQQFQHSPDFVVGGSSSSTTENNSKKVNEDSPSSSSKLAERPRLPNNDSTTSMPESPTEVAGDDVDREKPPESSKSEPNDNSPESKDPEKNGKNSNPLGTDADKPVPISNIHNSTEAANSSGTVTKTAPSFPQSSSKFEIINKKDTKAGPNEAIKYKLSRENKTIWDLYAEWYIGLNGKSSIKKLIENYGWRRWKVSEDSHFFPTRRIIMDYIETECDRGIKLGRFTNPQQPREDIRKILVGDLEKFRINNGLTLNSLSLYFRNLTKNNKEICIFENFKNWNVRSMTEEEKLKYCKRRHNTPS
- assay-details: PBM E-score (8-mer binding enrichment) (E-score (-0.5 to 0.5)); higher = stronger / more preferred TF binding
- conditions: protein concentration: 100 nM; construct: GST-full length
Whole data set: some 33,000 sequences, median “E-score (-0.5 to 0.5)” near -0.011, cut for the highest 2% near 0.28. Only a selection was taken, and the highest values are over-represented in it overall.
Field: PBM E-score. Provide a value for each of the sequences that follow.

CCACCGCG :: -0.0592
CCCACCAG :: 0.0742
CCACAATC :: 0.156
AGACCGCT :: -0.2
GGAGCCAC :: 0.289
CTGGATTA :: 0.246

Give PBM E-score for all sequences that follow.
1. GCGGGAGA
2. GGAGCCCA
3. GGTGTGAA
4. TACAGATA
5. TGAGCCCA
6. CGTAGTGA

a:
1: -0.277; 2: 0.349; 3: -0.0292; 4: -0.0799; 5: 0.0335; 6: -0.043

Give PBM E-score for all sequences that follow.
1. CATTTACG
2. ATGGATTC
3. CCACAATA
4. GGAGCCCC
5. TGTTCAAA
6. CGGCCCTA

a:
1: 0.0351; 2: 0.272; 3: 0.3; 4: 0.265; 5: -0.014; 6: -0.253

Measured values drawn from the supplement of paper PMC3334620 for this set.
